# Test system: erythroid progenitor cells (EPCs)
# test details: Fetal hemoglobin (HbF) ELISA in day 7 erythroid progenitor cells;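 note: for fetal hemoglobin induction normalized to vehicle-treated cells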
# Format: cell-based, human
# condition: Homo sapiens, Erythroid progenitor cell, HbF ELISA, day 7 EPCs, 5 days; read-out: EPC ELISA (pEC50 category) (converted)
Where a name gives a salt, the structure may show the parent alone.
endpoint name: EC50

Value of EC50 reported for the compound CCc1c(C#N)c(SC(C(N)=O)c2ccccc2)nc(N2CCC(OP(=O)(O)O)C2)c1C#N (stereo not shown) is > 31600 nM

Value of EC50 reported for the compound CCc1c(C#N)c(SC(C(N)=O)c2ccccc2)nc(N2CCC(C(N)=O)CC2)c1C#N (stereo not shown) is 1000 to 31600 nM

Value of EC50 reported for the compound CCc1c(C#N)c(SC(C(N)=O)c2ccccc2)nc(N2CCOC(CN(CC)CC)C2)c1C#N (stereo not shown) is < 316 nM

Value of EC50 reported for the compound CCc1c(C#N)c(SC(C(N)=O)c2ccccc2)nc(N2CCO[C@@H](CNC(=O)C(C)(C)N)C2)c1C#N (stereo partly shown) is < 316 nM

Value of EC50 reported for the compound CCc1c(C#N)c(SC(C(N)=O)c2ccccc2)nc(N2CCC(NC(=O)[C@@H](N)CO)CC2)c1C#N (stereo partly shown) is 1000 to 31600 nM

Value of EC50 reported for the compound CCc1c(C#N)c(SC(C(N)=O)c2ccccc2)nc(N2CC[C@H](ONC(=N)N)C2)c1C#N (stereo partly shown) is < 316 nM

Value of EC50 reported for the compound CCc1c(C#N)c(SC(C(N)=O)c2ccccc2)nc(N2CCC[C@@H](CNC(=O)C(C)(C)N)C2)c1C#N (stereo partly shown) is < 316 nM

Value of EC50 reported for the compound CCc1c(C#N)c(SC(C(N)=O)c2ccc(F)c(F)c2)nc(N2CCC(N(C)C)CC2)c1C#N (stereo not shown) is < 316 nM

Value of EC50 reported for the compound CCc1c(C#N)c(SCc2ccc(CNC(=O)CNC(=O)OC(C)(C)C)cc2)nc(N2CCCN(C)CC2)c1C#N is > 31600 nM

Value of EC50 reported for the compound CNC1CCCN(c2nc(SC(C(N)=O)c3ccccc3)c(C#N)c(C3CC3)c2C#N)C1 (stereo not shown) is < 316 nM

Value of EC50 reported for the compound CCc1c(C#N)c(SC(C(N)=O)c2ccccc2)nc(N2CCOC(CN)C2)c1C#N (stereo not shown) is < 316 nM

Value of EC50 reported for the compound CCc1c(C#N)c(SC(C(N)=O)c2ccccc2)nc(N(C)CCC(N)=O)c1C#N (stereo not shown) is 1000 to 31600 nM

Value of EC50 reported for the compound N#Cc1c(SC(C(N)=O)c2ccccc2)nc(N2CCC(O)(CN)CC2)c(C#N)c1C1CC1 (stereo not shown) is 1000 to 31600 nM

Value of EC50 reported for the compound CCc1c(C#N)c(SCc2ccc(CNC(=O)OC(C)(C)C)cc2)nc(N2CCCN(C)CC2)c1C#N is > 31600 nM

Value of EC50 reported for the compound CCc1c(C#N)c(SC(C(N)=O)c2ccccc2)nc(N(C)C)c1C#N (stereo not shown) is 316 to 1000 nM

Value of EC50 reported for the compound CCc1c(C#N)c(SC(C(N)=O)c2ccc(F)cc2)nc(N2CCC[C@H](CNCC(C)(C)C)C2)c1C#N (stereo partly shown) is < 316 nM

Value of EC50 reported for the compound CCc1c(C#N)c(SC(C(N)=O)c2ccccc2)nc(N2CCC(N(C)C3CCC3)CC2)c1C#N (stereo not shown) is < 316 nM

Value of EC50 reported for the compound N#Cc1c(SC(C(N)=O)c2ccccc2)nc(N2CCC(NCC(N)=O)CC2)c(C#N)c1C1CC1 (stereo not shown) is 1000 to 31600 nM

Value of EC50 reported for the compound CSc1c(C#N)c(SCc2ccc(CNC(C)=O)cc2)nc(N2CCCN(C)CC2)c1C#N is 316 to 1000 nM

Value of EC50 reported for the compound CCc1c(C#N)c(SC(C(N)=O)c2ccccc2)nc(N(C)CC(=O)N(C)CC2(CO)CC2)c1C#N (stereo not shown) is < 316 nM

Value of EC50 reported for the compound CCc1c(C#N)c(SC(C(N)=O)c2ccccc2)nc(N2CCC(N(C)C)CC2)c1C#N (stereo not shown) is < 316 nM

Value of EC50 reported for the compound CCOc1c(C#N)c(SCc2ccc(CNC(C)=O)cc2)nc(N2CCCN(C)CC2)c1C#N is 1000 to 31600 nM

Value of EC50 reported for the compound CCc1c(C#N)c(SC(C(N)=O)c2ccccc2)nc(N2CCC(NC(=O)CCCN)CC2)c1C#N (stereo not shown) [Example 629, formate] is 1000 to 31600 nM

Value of EC50 reported for the compound CCCS(=O)(=O)N1CCN(c2nc(SC(C(N)=O)c3ccccc3)c(C#N)c(CC)c2C#N)CC1 (stereo not shown) is < 316 nM

Value of EC50 reported for the compound CCc1c(C#N)c(SC(C(N)=O)c2ccccc2F)nc(N2CC[C@H](O)C2)c1C#N (stereo partly shown) is 1000 to 31600 nM

Value of EC50 reported for the compound CCc1c(C#N)c(SC(C(N)=O)c2ccccc2)nc(N2CCC[C@@H](N)C2)c1C#N (stereo partly shown) is 1000 to 31600 nM

Value of EC50 reported for the compound CCc1c(C#N)c(SC(C(N)=O)c2ccccc2)nc(N2CCC(N3C(=O)CCC3=O)CC2)c1C#N (stereo not shown) is < 316 nM

Value of EC50 reported for the compound CCc1c(C#N)c(S[C@H](C(N)=O)c2ccccc2)nc(N2CCC(N)CC2)c1C#N [Example 605, Hydrochloride] is < 316 nM

Value of EC50 reported for the compound CCOc1c(C#N)c(SC(C)C(N)=O)nc(N2CCCN(CCO)CC2)c1C#N (stereo not shown) is 1000 to 31600 nM

Value of EC50 reported for the compound CCc1c(C#N)c(SC(C(N)=O)c2ccccc2)nc(N2CC(F)(CN)C2)c1C#N (stereo not shown) is 1000 to 31600 nM

Value of EC50 reported for the compound N#Cc1c(SC(C(N)=O)c2ccccc2)nc(N2CCC[C@@H](O)C2)c(C#N)c1C1CC1 (stereo partly shown) is 1000 to 31600 nM
